target: Estrogen Receptor (ERα) in MCF-7 human ductal carcinoma breast cell line (Homo sapiens); construct: endogenous in cells; host or cells: MCF-7; experiment: MCF-7 ER degradation assay (cell based immuno-fluorescence); settings: MCF-7 cells, 0.3 μM; ER degradation by fulvestrant at 0.3 μM is defined as 100%
Measure Name: ER degradation ≥ 90% at 0.3 μM

Please review the following examples before continuing.
Smi: Cc1ncsc1-c1ccc(CNC(=O)[C@@H]2C[C@@H](O)CN2C(=O)[C@@H](NC(=O)COCCCOCCOc2ccc([C@@H]3c4[nH]c5ccccc5c4C[C@@H](C)N3CC(F)F)nc2)C(C)(C)C)cc1
Result: •
//
Smi: Cc1ncsc1-c1ccc([C@H](C)NC(=O)[C@@H]2C[C@@H](O)CN2C(=O)[C@@H](NC(=O)COCCCOCCCCCOc2cc(F)c([C@@H]3c4[nH]c5ccccc5c4C[C@@H](C)N3CC(C)(C)F)c(F)c2)C(C)(C)C)cc1
Result: ••
//
Smi: Cc1ncsc1-c1ccc(CNC(=O)[C@@H]2C[C@@H](O)CN2C(=O)[C@@H](NC(=O)C(F)(F)OCCOCCCCOc2cc(F)c([C@@H]3c4[nH]c5ccccc5c4C[C@@H](C)N3CC(C)(C)F)c(F)c2)C(C)(C)C)cc1
Result: •
//
Smi: Cc1ncsc1-c1ccc(CNC(=O)[C@@H]2C[C@@H](O)CN2C(=O)[C@@H](NC(=O)COCCCOCCCOc2cc(F)c([C@@H]3c4[nH]c5ccccc5c4C[C@@H](C)N3CC(C)(C)F)c(F)c2)C(C)(C)C)cc1
Result: ••
//
Smi: Cc1ncsc1-c1ccc(CNC(=O)[C@@H]2C[C@@H](O)CN2C(=O)[C@@H](NC(=O)COCCOCCCCCOc2cnc([C@@H]3c4[nH]c5ccccc5c4C[C@@H](C)N3CC(F)(F)F)c(F)c2)C(C)(C)C)cc1
Result: ••

Inquiry: Name the recorded ER degradation ≥ 90% at 0.3 μM for Cc1ncsc1-c1ccc(CNC(=O)[C@@H]2C[C@@H](O)CN2C(=O)[C@@H](NC(=O)COCCCCCOCCCOc2cc(F)c([C@@H]3c4[nH]c5ccccc5c4C[C@@H](C)N3CC(C)(C)F)c(F)c2)C(C)(C)C)cc1 .
Reply text: ••

Inquiry: Name the recorded ER degradation ≥ 90% at 0.3 μM for Cc1ncsc1-c1ccc(CNC(=O)[C@@H]2C[C@@H](O)CN2C(=O)[C@@H](NC(=O)COCCc2ccc(COc3cc(F)c([C@@H]4c5[nH]c6ccccc6c5C[C@@H](C)N4CC(C)(C)F)c(F)c3)cc2)C(C)(C)C)cc1 .
Reply text: •

Inquiry: Name the recorded ER degradation ≥ 90% at 0.3 μM for Cc1ncsc1-c1ccc(CNC(=O)[C@@H]2C[C@@H](O)CN2C(=O)[C@@H](NC(=O)COCCOCCOCCOc2cc(F)c([C@@H]3c4[nH]c5ccccc5c4C[C@@H](C)N3CC(F)(F)F)c(F)c2)C(C)(C)C)cc1 .
Reply text: ••

Inquiry: Name the recorded ER degradation ≥ 90% at 0.3 μM for Cc1ncsc1-c1ccc(CNC(=O)[C@@H]2C[C@@H](O)CN2C(=O)[C@@H](NC(=O)CNCc2ccc(COc3cc(F)c([C@@H]4c5[nH]c6ccccc6c5C[C@@H](C)N4CC(C)(C)F)c(F)c3)nc2)C(C)(C)C)cc1 .
Reply text: •

====

biological target: Estrogen Receptor (ERα) in MCF-7 human ductal carcinoma breast cell line (Homo sapiens, UniProt P03372); construct: endogenous in cells; host or cells: MCF-7; experiment: MCF-7 ER degradation assay (cell based immuno-fluorescence); conditions: MCF-7 cells, 0.3 μM; ER degradation by fulvestrant at 0.3 μM is defined as 100%
Sequence (P03372 whole entry): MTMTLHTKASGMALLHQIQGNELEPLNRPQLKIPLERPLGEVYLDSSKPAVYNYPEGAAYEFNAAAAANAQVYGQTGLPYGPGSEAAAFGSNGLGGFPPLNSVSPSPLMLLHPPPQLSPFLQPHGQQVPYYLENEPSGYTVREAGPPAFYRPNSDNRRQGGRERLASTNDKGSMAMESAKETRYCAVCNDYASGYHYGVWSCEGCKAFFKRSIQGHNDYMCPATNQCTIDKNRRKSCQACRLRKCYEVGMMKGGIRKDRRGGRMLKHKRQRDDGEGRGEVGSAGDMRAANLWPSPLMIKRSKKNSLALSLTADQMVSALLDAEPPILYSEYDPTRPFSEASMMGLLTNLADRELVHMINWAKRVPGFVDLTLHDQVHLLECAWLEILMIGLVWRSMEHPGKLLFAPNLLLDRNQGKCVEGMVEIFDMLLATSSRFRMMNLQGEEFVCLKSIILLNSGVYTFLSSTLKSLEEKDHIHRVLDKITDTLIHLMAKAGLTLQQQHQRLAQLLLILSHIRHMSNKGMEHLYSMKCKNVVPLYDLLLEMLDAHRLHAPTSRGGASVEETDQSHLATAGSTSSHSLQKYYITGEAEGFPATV
Measure Name: ER degradation ≥ 90% at 0.3 μM

Please review the following examples before continuing.
Smi: Cc1ncsc1-c1ccc(CNC(=O)[C@@H]2C[C@@H](O)CN2C(=O)[C@@H](NC(=O)COCCOCCCCCOc2cnc([C@@H]3c4[nH]c5ccccc5c4C[C@@H](C)N3CC(C)(F)F)c(F)c2)C(C)(C)C)cc1
ER degradation ≥ 90% at 0.3 μM: ••
--
Smi: Cc1ncsc1-c1ccc([C@H](C)NC(=O)[C@@H]2C[C@@H](O)CN2C(=O)[C@@H](NC(=O)C(F)(F)OCCCOCCCOc2cc(F)c([C@@H]3c4[nH]c5ccccc5c4C[C@@H](C)N3CC(C)(C)F)c(F)c2)C(C)(C)C)cc1
ER degradation ≥ 90% at 0.3 μM: ••
--
Smi: Cc1ncsc1-c1ccc(CNC(=O)[C@@H]2C[C@@H](O)CN2C(=O)[C@@H](NC(=O)COCc2ccc(COc3cc(F)c([C@@H]4c5[nH]c6ccccc6c5C[C@@H](C)N4CC(C)(C)F)c(F)c3)cc2)C(C)(C)C)cc1
ER degradation ≥ 90% at 0.3 μM: ••
--
Smi: Cc1ncsc1-c1ccc(CNC(=O)[C@@H]2C[C@@H](O)CN2C(=O)[C@@H](NC(=O)COCCOCCC(F)(F)CCOc2cc(F)c([C@@H]3c4[nH]c5ccccc5c4C[C@@H](C)N3CC(C)(C)F)c(F)c2)C(C)(C)C)cc1
ER degradation ≥ 90% at 0.3 μM: ••
--
Smi: Cc1ncsc1-c1ccc(CNC(=O)[C@@H]2C[C@@H](O)CN2C(=O)[C@@H](NC(=O)COCc2ccc(OCCOc3cc(F)c([C@@H]4c5[nH]c6ccccc6c5C[C@@H](C)N4CC(C)(C)F)c(F)c3)cc2)C(C)(C)C)cc1
ER degradation ≥ 90% at 0.3 μM: •
--
Smi: Cc1ncsc1-c1ccc(CNC(=O)[C@@H]2C[C@@H](O)CN2C(=O)[C@@H](NC(=O)COCCOCCOCCCNC(=O)c2cc(F)c([C@@H]3c4[nH]c5ccccc5c4C[C@@H](C)N3CC(C)(C)F)c(F)c2)C(C)(C)C)cc1
ER degradation ≥ 90% at 0.3 μM: ••

Inquiry: Name the recorded ER degradation ≥ 90% at 0.3 μM for Cc1ncsc1-c1ccc(CNC(=O)[C@@H]2C[C@@H](O)CN2C(=O)[C@@H](NC(=O)CCCCCCOCCCOc2cc(F)c([C@@H]3c4[nH]c5ccccc5c4C[C@@H](C)N3CC(C)(C)F)c(F)c2)C(C)(C)C)cc1 .
Reply text: ••

Inquiry: Name the recorded ER degradation ≥ 90% at 0.3 μM for Cc1ncsc1-c1ccc(CNC(=O)[C@@H]2C[C@@H](O)CN2C(=O)[C@@H](NC(=O)COCCOCCOCCOCC(=O)Nc2ccc([C@@H]3c4[nH]c5ccccc5c4C[C@@H](C)N3CC(C)(C)F)cc2)C(C)(C)C)cc1 .
Reply text: •

====

target: Estrogen Receptor (ERα) in MCF-7 human ductal carcinoma breast cell line (Homo sapiens, UniProt P03372); construct: endogenous in cells; host or cells: MCF-7; test: MCF-7 ER degradation assay (cell based immuno-fluorescence); settings: MCF-7 cells, 0.3 μM; ER degradation by fulvestrant at 0.3 μM is defined as 100%

Compound: Cc1ncsc1-c1ccc(CNC(=O)[C@@H]2C[C@@H](O)CN2C(=O)[C@@H](NC(=O)COCC(F)(F)COCCCOc2cc(F)c([C@@H]3c4[nH]c5ccccc5c4C[C@@H](C)N3CC(C)(C)F)c(F)c2)C(C)(C)C)cc1 [Example 125]
ER degradation ≥ 90% at 0.3 μM: ••
--
Compound: Cc1ncsc1-c1ccc(CNC(=O)[C@@H]2C[C@@H](O)CN2C(=O)[C@@H](NC(=O)COCCCCCNCCOc2cc(F)c([C@@H]3c4[nH]c5ccccc5c4C[C@@H](C)N3CC(C)(C)F)c(F)c2)C(C)(C)C)cc1 [Example 48]
ER degradation ≥ 90% at 0.3 μM: •
--
Compound: Cc1ncsc1-c1ccc(CNC(=O)[C@@H]2C[C@@H](O)CN2C(=O)[C@@H](NC(=O)COCc2cccc(COc3cc(F)c([C@@H]4c5[nH]c6ccccc6c5C[C@@H](C)N4CC(C)(C)F)c(F)c3)n2)C(C)(C)C)cc1 [Example 132]
ER degradation ≥ 90% at 0.3 μM: •
--
Compound: Cc1ncsc1-c1ccc(CNC(=O)[C@@H]2C[C@@H](O)CN2C(=O)[C@@H](NC(=O)CCCOc2ccc(COc3cc(F)c([C@@H]4c5[nH]c6ccccc6c5C[C@@H](C)N4CC(C)(C)F)c(F)c3)nc2)C(C)(C)C)cc1 [Example 161]
ER degradation ≥ 90% at 0.3 μM: •

====

biological target: Estrogen Receptor (ERα) in MCF-7 human ductal carcinoma breast cell line (Homo sapiens); construct: endogenous in cells; host or cells: MCF-7; experiment: MCF-7 ER degradation assay (cell based immuno-fluorescence); conditions: MCF-7 cells, 0.3 μM; ER degradation by fulvestrant at 0.3 μM is defined as 100%

Compound: Cc1ncsc1-c1ccc(CNC(=O)[C@@H]2C[C@@H](O)CN2C(=O)[C@@H](NC(=O)CCCOc2cccc(COc3cc(F)c([C@@H]4c5[nH]c6ccccc6c5C[C@@H](C)N4CC(C)(C)F)c(F)c3)n2)C(C)(C)C)cc1 [Example 162]
ER degradation ≥ 90% at 0.3 μM: •
//
Compound: Cc1ncsc1-c1ccc([C@H](C)NC(=O)[C@@H]2C[C@@H](O)CN2C(=O)[C@@H](NC(=O)COCCc2ccc(COc3cc(F)c([C@@H]4c5[nH]c6ccccc6c5C[C@@H](C)N4CC(C)(C)F)c(F)c3)nc2)C(C)(C)C)cc1 [Example 159]
ER degradation ≥ 90% at 0.3 μM: ••
//
Compound: Cc1ncsc1-c1ccc(CNC(=O)C2CC(O)CN2C(=O)C(NC(=O)COCCOc2cc(F)c(C3c4[nH]c5ccccc5c4CC(C)N3CC(C)(C)F)c(F)c2)C(C)(C)C)cc1 (stereo not drawn) [Example 40]
ER degradation ≥ 90% at 0.3 μM: •

The reported measurements were obtained from patent US10519152B2.
